Assay: Steady-state plasma pharmacokinetics of paroxetine, healthy adults
Type: in vivo, human
Settings: human, plasma, oral, 20 mg
quantity_name: Cmax (ng/mL)
Dear colleague, please return just the value in ng/mL, with no unit written.

query: What measured Cmax goes with Fc1ccc([C@@H]2CCNC[C@H]2COc2ccc3c(c2)OCO3)cc1 [Paroxetine, paroxetine] ?
result: 39

----------
Assay: Steady-state plasma pharmacokinetics of paroxetine, healthy adults
Type: in vivo, human
Settings: human, plasma, oral, 20 mg
quantity_name: AUC (ng·h/mL)
Just the number please, in ng·h/mL, no unit attached.

query: Need AUC of Fc1ccc([C@@H]2CCNC[C@H]2COc2ccc3c(c2)OCO3)cc1 [Paroxetine, paroxetine] , thanks.
result: 709
